These measurements were taken from ChEMBL document CHEMBL4043275.

# pIC50 listing for each entry below
molecular target: Butyrylcholinesterase (Rattus norvegicus, UniProt Q9JKC1); test: Inhibition of rat serum BChE using butyrylthiocholine chloride as substrate incubated for 15 mins by Ellman's method
Sequence (Q9JKC1 whole entry): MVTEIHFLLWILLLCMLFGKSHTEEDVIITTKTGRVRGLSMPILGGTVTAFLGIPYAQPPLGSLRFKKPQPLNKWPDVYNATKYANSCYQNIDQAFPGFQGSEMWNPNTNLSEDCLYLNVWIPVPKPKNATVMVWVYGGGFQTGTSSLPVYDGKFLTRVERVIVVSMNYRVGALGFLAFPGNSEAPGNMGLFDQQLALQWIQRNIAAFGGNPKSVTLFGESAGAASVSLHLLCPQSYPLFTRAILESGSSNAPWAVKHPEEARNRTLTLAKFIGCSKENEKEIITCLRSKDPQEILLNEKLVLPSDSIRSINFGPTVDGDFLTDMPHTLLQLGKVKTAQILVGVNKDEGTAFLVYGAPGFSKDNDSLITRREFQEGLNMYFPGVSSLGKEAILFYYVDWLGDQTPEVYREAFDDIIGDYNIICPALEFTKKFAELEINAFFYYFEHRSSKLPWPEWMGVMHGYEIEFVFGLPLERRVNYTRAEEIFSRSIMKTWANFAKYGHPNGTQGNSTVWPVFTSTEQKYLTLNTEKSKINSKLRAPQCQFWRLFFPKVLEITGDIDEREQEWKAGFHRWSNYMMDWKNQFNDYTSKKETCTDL
Please note pIC50 is a logarithmic value: minus log10 of concentration in mol/L. Answer with that number alone.

Below are worked cases with known answers.
smiles structure: CN(CCCN1C(=O)c2ccccc2C1=O)Cc1ccccc1
measured on: Butyrylcholinesterase (Rattus norvegicus, UniProt Q9JKC1)
pIC50: 4.64
//
smiles structure: COc1ccccc1CN(C)CCCN1C(=O)c2ccccc2C1=O
measured on: Butyrylcholinesterase (Rattus norvegicus, UniProt Q9JKC1)
pIC50: 4.56
//
smiles structure: C#CCN(CCCCN1C(=O)c2ccccc2C1=O)Cc1ccccc1OC
measured on: Butyrylcholinesterase (Rattus norvegicus, UniProt Q9JKC1)
pIC50: 4.41
//
smiles structure: C#CCN(CCCN1C(=O)c2ccccc2C1=O)Cc1ccccc1
measured on: Butyrylcholinesterase (Rattus norvegicus, UniProt Q9JKC1)
pIC50: 5.66
//
smiles structure: CN(CCCCCCN1C(=O)c2ccccc2C1=O)Cc1ccccc1
measured on: Butyrylcholinesterase (Rattus norvegicus, UniProt Q9JKC1)
pIC50: 4.68
//
smiles structure: C#CCN(CCCCCCN1C(=O)c2ccccc2C1=O)Cc1ccccc1
measured on: Butyrylcholinesterase (Rattus norvegicus, UniProt Q9JKC1)
pIC50: 4.79
//
smiles structure: CN(CCN1C(=O)c2ccccc2C1=O)Cc1ccccc1
measured on: Butyrylcholinesterase (Rattus norvegicus, UniProt Q9JKC1)
pIC50: 4.58
//
smiles structure: COc1ccccc1CN(C)CCN1C(=O)c2ccccc2C1=O
measured on: Butyrylcholinesterase (Rattus norvegicus, UniProt Q9JKC1)
pIC50: 4.83
//
smiles structure: CC(C)N1CCN(CCCCCN2C(=O)c3ccccc3C2=O)CC1
measured on: Butyrylcholinesterase (Rattus norvegicus, UniProt Q9JKC1)
pIC50: 4.79
//
smiles structure: COc1ccccc1CN(C)CCCCN1C(=O)c2ccccc2C1=O
measured on: Butyrylcholinesterase (Rattus norvegicus, UniProt Q9JKC1)
pIC50: 5.04

Reported pIC50 of "CCN(CCCCCCN1C(=O)c2ccccc2C1=O)Cc1ccccc1" : 4.74

Reported pIC50 of "CC(C)N1CCN(CCCCCCN2C(=O)c3ccccc3C2=O)CC1" : 4.55

---

# pIC50 listing for each entry below
target: Cholinesterase (Equus caballus, UniProt P81908); assay: Inhibition of equine serum BChE using butyrylthiocholine chloride as substrate incubated for 15 mins by Ellman's method
Sequence (P81908 whole entry): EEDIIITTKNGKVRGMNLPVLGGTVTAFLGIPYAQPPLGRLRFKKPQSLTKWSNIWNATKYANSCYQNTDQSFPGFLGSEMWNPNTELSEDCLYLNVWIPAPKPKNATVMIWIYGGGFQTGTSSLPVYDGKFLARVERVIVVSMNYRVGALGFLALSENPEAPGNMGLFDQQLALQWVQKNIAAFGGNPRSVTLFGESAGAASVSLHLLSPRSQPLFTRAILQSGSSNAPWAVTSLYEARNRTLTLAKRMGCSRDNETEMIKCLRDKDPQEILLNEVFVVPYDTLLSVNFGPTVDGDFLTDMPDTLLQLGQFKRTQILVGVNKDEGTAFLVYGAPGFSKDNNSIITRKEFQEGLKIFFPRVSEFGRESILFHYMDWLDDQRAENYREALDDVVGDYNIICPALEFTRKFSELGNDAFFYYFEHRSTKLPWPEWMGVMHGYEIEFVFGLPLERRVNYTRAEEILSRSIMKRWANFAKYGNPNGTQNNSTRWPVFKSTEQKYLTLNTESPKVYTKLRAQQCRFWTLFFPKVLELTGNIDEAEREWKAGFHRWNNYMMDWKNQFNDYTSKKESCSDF
Please note pIC50 is a logarithmic value: minus log10 of concentration in mol/L. Answer with that number alone.

Below are worked cases with known answers.
smiles structure: COc1ccccc1CN(C)CCCCCCN1C(=O)c2ccccc2C1=O
readout label: pIC50
measured: 4.51
//
smiles structure: CCN(CCCCN1C(=O)c2ccccc2C1=O)Cc1ccccc1OC
readout label: pIC50
measured: 4.51
//
smiles structure: C#CCN(CCCCN1C(=O)c2ccccc2C1=O)Cc1ccccc1
readout label: pIC50
measured: 4.90
//
smiles structure: CN(CCCCCCN1C(=O)c2ccccc2C1=O)Cc1ccccc1
readout label: pIC50
measured: 4.75

Now turn to the next molecule.
Reported pIC50 of "CN(CCN1C(=O)c2ccccc2C1=O)Cc1ccccc1" : 4.65

---

Biological target: Acetylcholinesterase (Rattus norvegicus, UniProt P37136)
Sequence (P37136 whole entry): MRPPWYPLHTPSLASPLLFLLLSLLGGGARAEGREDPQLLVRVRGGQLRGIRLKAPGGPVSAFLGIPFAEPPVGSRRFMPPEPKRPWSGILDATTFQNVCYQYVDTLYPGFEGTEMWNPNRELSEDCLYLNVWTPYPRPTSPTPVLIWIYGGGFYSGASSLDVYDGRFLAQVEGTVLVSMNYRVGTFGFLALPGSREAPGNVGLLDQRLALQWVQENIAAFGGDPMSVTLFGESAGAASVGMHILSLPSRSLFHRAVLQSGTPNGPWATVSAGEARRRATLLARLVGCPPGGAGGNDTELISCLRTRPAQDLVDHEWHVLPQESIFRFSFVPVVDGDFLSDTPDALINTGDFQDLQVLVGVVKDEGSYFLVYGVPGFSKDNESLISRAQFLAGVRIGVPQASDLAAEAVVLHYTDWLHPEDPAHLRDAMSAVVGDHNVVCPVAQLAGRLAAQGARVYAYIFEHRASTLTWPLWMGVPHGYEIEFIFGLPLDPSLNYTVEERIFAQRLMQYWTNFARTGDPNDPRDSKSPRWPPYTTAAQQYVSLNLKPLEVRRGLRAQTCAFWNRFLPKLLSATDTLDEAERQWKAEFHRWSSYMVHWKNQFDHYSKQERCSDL
# pIC50 listing for each entry below
Please note pIC50 is a logarithmic value: minus log10 of concentration in mol/L. Answer with that number alone.

smiles structure: CN(CCCCCCN1C(=O)c2ccccc2C1=O)Cc1ccccc1
pIC50: 5.41
//
smiles structure: C#CCN(CCCCN1C(=O)c2ccccc2C1=O)Cc1ccccc1OC
pIC50: 5.29

Reported pIC50 of "CC(C)N1CCN(CCCCN2C(=O)c3ccccc3C2=O)CC1" : 5.41

Reported pIC50 of "C#CCN(CCCCCN1C(=O)c2ccccc2C1=O)Cc1ccccc1" : 4.98
